system: HIV-1; conditions: HIV-1 in human PBMCs, seven days following infection
readout_type: anti-HIV activity based on TI (therapeutic index: TC50/IC50)

1) Cc1c(-c2ccnc(Nc3cccc(C#N)c3)n2)sc(=O)n1C | Active
2) Cc1ccc(Nc2nccc(-c3sc(=O)n(C)c3C)n2)cc1C(F)(F)F | Active
3) CC(=O)NCc1ccc(Nc2nccc(-c3sc(=O)n(C)c3C)n2)cc1 | Active
4) CCn1c(C)c(-c2ccnc(Nc3cccc([N+](=O)[O-])c3)n2)sc1=O | Active
5) Cc1ccc(Nc2nccc(-c3sc(=O)n(C)c3C)n2)cc1[N+](=O)[O-] | Active
6) CCn1c(C)c(-c2ccnc(Nc3ccc(OC)nc3)n2)sc1=O | Active
7) Cc1c(-c2ccnc(Nc3ccc(F)cc3)n2)sc(=O)n1C | Active
8) Cc1cc(Nc2nccc(-c3sc(=O)n(C)c3C)n2)ccc1Cl | Active
9) Cc1c(-c2ccnc(Nc3cccc(S(N)(=O)=O)c3)n2)sc(=O)n1C | Active
10) Cc1c(-c2ccnc(Nc3ccc(N4CCNCC4)cc3)n2)sc(=O)n1C | Active
